TARGET UNDER TEST: T1, recombinant human CFD mutant 1 (R157A, R207A), His-tagged (human, UniProt P00746 26-253)
T1 construct: positions are linear positions in the mature protein; also called rhCFD-mut1-His; Mut1
T1 sequence (P00746 26-253 R182A/R232A limits assumed): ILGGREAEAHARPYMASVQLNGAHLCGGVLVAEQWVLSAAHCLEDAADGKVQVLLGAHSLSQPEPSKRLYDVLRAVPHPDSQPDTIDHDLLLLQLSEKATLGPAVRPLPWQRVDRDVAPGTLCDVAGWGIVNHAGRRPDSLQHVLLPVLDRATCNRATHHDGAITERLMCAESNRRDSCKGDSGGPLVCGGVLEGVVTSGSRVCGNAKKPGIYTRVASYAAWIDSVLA
ASSAY PROTOCOL: SPR MX96
ENDPOINT LABEL: Kd (nM)
Output spec: scalar in nM, unitless text.

Use the examples below as a reference point.
BINDER	VALUE UNIT	TEST VALUE
KCD125 (antibody, V domains shown) VH: EVQLQQSGAELVRPGSSVKMSCKTSGNTFTSYGINWVKQRPGQGLEWIGYIYIGTGYTEYNEKFKGKATLTSDTSSSTAYMQLSSLTSEDSAIYFCVRKAYGNYGFDYWGQGTTLTVSS VL: DIQMTQSPSSLSASLGERVSLTCRASQEISGYLSWLQQKPDGTIKRLIYAASTLDSGVPKRFSGSRSGSDYSLTISSLESEDFADYYCLQYASYPFTFGSGTKLEIK	nM	2.7
KCD102 (antibody, V domains shown, chimeric) VH: QVQLQQPGAELVRPGTSVKLSCKASGYTFTSYWMHWVKQRPGQGLEWIGVIDPSDSYTNYNQKFKGKATLTVDTSSSTAYMQLSSLTSEDSAVYYCARNGYDGSMDYWGQGTSVTVSS VL: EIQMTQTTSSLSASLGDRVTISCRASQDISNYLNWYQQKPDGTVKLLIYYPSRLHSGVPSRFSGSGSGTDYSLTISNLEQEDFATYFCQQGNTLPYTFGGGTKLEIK	nM	2.5

The recorded Kd for entry KCD042 (antibody, V domains shown, chimeric) VH: EVQLQQSGAELVKPGASVRLSCTASGFNIKHTYIHWVSQRPEQGLEWIGKIDPANGNTKYDPKFQGKATITADTSSNTAYLQLSSLTSEDTAVYYCVNAMEYWGQGTSVTVSS VL: QSVLTQSPAIMSASPGEKVTMTCSANSSVSDMYWFQQRPGSSPRLLIYDTSNLASGVPVRFSGSGSGTSYSLTISRMEAEDAATYYCQQWSTYPWTFGGGTKLEIK equals 0.42
